Tested on: human SMAD7 mRNA
Experiment: Dose-dependent inhibition of human SMAD7 mRNA expression in Hep3B cells (Example 3, Study 1 and 2)
Type: cell-based
Conditions: 6670.0 nM, electroporation, approximately 16 hours, Study 2
Experimental: The antisense oligonucleotides were tested in a series of experiments that had similar culture conditions as described below. Cells were plated at a density of 20,000 cells per well and transfected using electroporation with 0.31 μM, 1.25 μM, 5.00 μM, or 20.00 μM concentrations of antisense oligonucleotide, as specified in the Tables below. […] After a treatment period of approximately 16 hours, RNA was isolated from the cells and SMAD7 mRNA levels were measured by quantitative real-time PCR. […]
Strand notation (5' to 3'): a small letter for the sugar, then the base; units joined by * are phosphorothioate-linked, units joined directly phosphodiester-linked; [ ] holds rarer units or linkages, { } end groups; capitals alone tell only the bases. k = constrained ethyl (cEt); [5mC] = 5-methylcytosine; d = 2'-deoxy (DNA)
Decide by % inhibition of SMAD7 mRNA expression: equal to or exceeding 50% means yes (1), less means no (0).

Some solved cases for reference:
799751 (antisense kG*kA*kG*d[5mC]*dT*dA*dA*dT*dG*dA*d[5mC]*dA*d[5mC]*kT*kG*kG) [compound 799751] | yes (1)
830180 (antisense k[5mC]*kG*kT*dG*dT*dA*d[5mC]*d[5mC]*d[5mC]*dA*dG*d[5mC]*dT*kG*k[5mC]*k[5mC]) [compound 830180] | no (0)
830099 (kG*k[5mC]*k[5mC]*dT*dT*dT*dG*dG*dA*dA*dT*dT*dA*kG*kT*kA; antisense) [compound 830099] | yes (1)
830163 (antisense k[5mC]*kA*kA*d[5mC]*dT*dG*dA*dA*dG*dG*dT*dG*dA*k[5mC]*k[5mC]*k[5mC]) [compound 830163] | yes (1)
799322 (antisense kG*kG*kA*dG*dG*dG*dT*dA*dT*dG*d[5mC]*dA*d[5mC]*kA*k[5mC]*kT) [compound 799322] | yes (1)

Tell me whether % inhibition of SMAD7 mRNA expression is at least 50% here: 829956 (k[5mC]*k[5mC]*kT*dT*dG*dT*d[5mC]*dA*d[5mC]*d[5mC]*d[5mC]*dG*dT*k[5mC]*kT*kG; antisense) [compound 829956] yes (1)

Same read-out for 799671 (antisense kA*kG*kG*dT*dA*dT*dT*dT*dT*dT*dG*dA*dA*kG*kG*k[5mC]) [compound 799671] ? yes (1)

Same read-out for 798686 (antisense kG*kA*kG*dG*dA*dG*dG*d[5mC]*dG*dA*dG*dG*dA*kG*kA*kA) [compound 798686] ? no (0)

Same read-out for 799543 (kT*k[5mC]*kA*dA*dA*dT*dG*d[5mC]*dA*dT*dG*dA*dG*kT*kT*kA; antisense) [compound 799543] ? yes (1)

Same read-out for 790476 (kT*kT*k[5mC]*dT*dT*dG*dA*dG*d[5mC]*dA*d[5mC]*d[5mC]*dG*kA*kG*kT; antisense) [compound 790476] ? yes (1)

Same read-out for 790614 (kG*kA*kG*dA*dA*dT*dG*d[5mC]*dT*dT*d[5mC]*dT*d[5mC]*kT*kT*kG; antisense) [compound 790614] ? no (0)

Same read-out for 799511 (antisense kT*kA*kA*dT*dG*dA*d[5mC]*dA*dA*dT*dT*d[5mC]*d[5mC]*kA*kG*k[5mC]) [compound 799511] ? no (0)

Same read-out for 799544 (kT*kT*k[5mC]*dA*dA*d[5mC]*dA*dA*dG*dT*dT*d[5mC]*d[5mC]*k[5mC]*kT*kA; antisense) [compound 799544] ? yes (1)

Same read-out for 799624 (kT*kG*kA*dA*dA*dG*dT*dA*d[5mC]*dA*dA*dT*d[5mC]*kT*k[5mC]*k[5mC]; antisense) [compound 799624] ? yes (1)

Same read-out for 790488 (kT*kT*k[5mC]*d[5mC]*dG*dA*dG*dG*dA*dA*dT*dG*d[5mC]*k[5mC]*kT*kG; antisense) [compound 790488] ? no (0)

Same read-out for 799607 (k[5mC]*k[5mC]*kA*dT*dT*dT*dA*d[5mC]*dA*dA*dA*dA*d[5mC]*kT*k[5mC]*kT; antisense) [compound 799607] ? no (0)

Same read-out for 800010 (kG*kT*kT*dA*dT*dT*dT*dA*dA*dT*dT*dA*d[5mC]*k[5mC]*k[5mC]*kT; antisense) [compound 800010] ? no (0)

Same read-out for 799382 (antisense kA*k[5mC]*kT*dT*dT*dT*dA*dG*d[5mC]*dA*dA*dA*d[5mC]*kA*kG*kA) [compound 799382] ? yes (1)

Same read-out for 799712 (antisense kA*kT*kA*dG*dA*dT*dT*dA*dT*d[5mC]*d[5mC]*dA*dA*kG*kT*kA) [compound 799712] ? yes (1)

Same read-out for 829994 (GGAGGCAGGGCCGCGA; 3-10-3 cEt gapmer, further chemistry not given here) [compound 829994] ? yes (1)

Same read-out for 799406 (antisense kG*kG*kG*dA*dA*d[5mC]*dA*dT*dG*dG*d[5mC]*d[5mC]*dT*kT*kT*k[5mC]) [compound 799406] ? yes (1)

Same read-out for 799753 (antisense k[5mC]*kG*kT*dG*dA*dG*dT*dA*dA*dA*dT*dT*d[5mC]*kT*kT*kA) [compound 799753] ? no (0)

Same read-out for 830138 (antisense kG*kG*kA*dG*dT*dT*dG*d[5mC]*dA*dT*dG*d[5mC]*d[5mC]*kT*kT*kT) [compound 830138] ? yes (1)

Same read-out for 799369 (antisense kA*k[5mC]*kT*d[5mC]*dA*d[5mC]*dT*dA*dA*dG*dT*d[5mC]*dT*k[5mC]*k[5mC]*kG) [compound 799369] ? no (0)

Same read-out for 830051 (kT*kA*kG*dT*dT*dT*d[5mC]*d[5mC]*dG*dA*dT*dT*dG*kG*k[5mC]*kA; antisense) [compound 830051] ? no (0)
